Cited source: paper PMC8222333

Quick reference for binding signal among some binders
Target: d-enCas12a-Ultra (Acidaminococcus sp., UniProt U2UMQ6 1-1307, E174R;S542R;K548R;M537R;F870L;D908A;E993A;D1235A)
Assay: Spec-seq (native PAGE EMSA with sequencing of bound and unbound); 25 mM Tris-HCl pH 7.4, 150 mM KCl, 5 mM MgCl2, 10% glycerol, 1 mM DTT, 40 ng/uL salmon sperm DNA; 400 nM Cas12a, 480 nM crRNA, 50 nM library, 37 C 1 h; native PAGE at room temperature; high values mean tight binding;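 note: relative affinity from the bound to unbound sequence frequency ratio in Spec-seq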
Conditions: protein: recombinant
Answer format: numeric, lnKA implied, no suffix.

binder | binding signal, lnKA
TAGT (dsDNA) DNA 1: GCTATCTAGTGCTCAGTACGCACTGTAGTAGGAAACTTCTGGCAGGACCAGGTCATGAGATCGGAAGAGCACACGTCTGAACTCCAGTCA DNA 2: TGACTGGAGTTCAGACGTGTGCTCTTCCGATCTCATGACCTGGTCCTGCCAGAAGTTTCCTACTACAGTGCGTACTGAGCACTAGATAGC RNA: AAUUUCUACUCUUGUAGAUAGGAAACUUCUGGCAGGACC | -3.31

Reported binding signal of AGCC (dsDNA) DNA 1: GCTATCTAGTGCTCAGTACGCACTGAGCCAGGAAACTTCTGGCAGGACCAGGTCATGAGATCGGAAGAGCACACGTCTGAACTCCAGTCA DNA 2: TGACTGGAGTTCAGACGTGTGCTCTTCCGATCTCATGACCTGGTCCTGCCAGAAGTTTCCTGGCTCAGTGCGTACTGAGCACTAGATAGC RNA: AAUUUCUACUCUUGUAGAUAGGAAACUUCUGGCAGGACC : -0.527

The value of binding signal measured for the binder AGTT (dsDNA) DNA 1: GCTATCTAGTGCTCAGTACGCACTGAGTTAGGAAACTTCTGGCAGGACCAGGTCATGAGATCGGAAGAGCACACGTCTGAACTCCAGTCA DNA 2: TGACTGGAGTTCAGACGTGTGCTCTTCCGATCTCATGACCTGGTCCTGCCAGAAGTTTCCTAACTCAGTGCGTACTGAGCACTAGATAGC RNA: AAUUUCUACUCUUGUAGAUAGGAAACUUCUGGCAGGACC turned out to be -1.91

Measured binding signal of CGCG (dsDNA) DNA 1: GCTATCTAGTGCTCAGTACGCACTGCGCGAGGAAACTTCTGGCAGGACCAGGTCATGAGATCGGAAGAGCACACGTCTGAACTCCAGTCA DNA 2: TGACTGGAGTTCAGACGTGTGCTCTTCCGATCTCATGACCTGGTCCTGCCAGAAGTTTCCTCGCGCAGTGCGTACTGAGCACTAGATAGC RNA: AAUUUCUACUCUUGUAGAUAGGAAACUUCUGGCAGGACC : -0.79

For reference, reported binding signal for AGAC (dsDNA) DNA 1: GCTATCTAGTGCTCAGTACGCACTGAGACAGGAAACTTCTGGCAGGACCAGGTCATGAGATCGGAAGAGCACACGTCTGAACTCCAGTCA DNA 2: TGACTGGAGTTCAGACGTGTGCTCTTCCGATCTCATGACCTGGTCCTGCCAGAAGTTTCCTGTCTCAGTGCGTACTGAGCACTAGATAGC RNA: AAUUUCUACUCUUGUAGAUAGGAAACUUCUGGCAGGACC stands at -3.24

binding signal reported for this binder GGAC (dsDNA) DNA 1: GCTATCTAGTGCTCAGTACGCACTGGGACAGGAAACTTCTGGCAGGACCAGGTCATGAGATCGGAAGAGCACACGTCTGAACTCCAGTCA DNA 2: TGACTGGAGTTCAGACGTGTGCTCTTCCGATCTCATGACCTGGTCCTGCCAGAAGTTTCCTGTCCCAGTGCGTACTGAGCACTAGATAGC RNA: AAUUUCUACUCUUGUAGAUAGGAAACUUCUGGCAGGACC : -3.35

So for CGTA (dsDNA) DNA 1: GCTATCTAGTGCTCAGTACGCACTGCGTAAGGAAACTTCTGGCAGGACCAGGTCATGAGATCGGAAGAGCACACGTCTGAACTCCAGTCA DNA 2: TGACTGGAGTTCAGACGTGTGCTCTTCCGATCTCATGACCTGGTCCTGCCAGAAGTTTCCTTACGCAGTGCGTACTGAGCACTAGATAGC RNA: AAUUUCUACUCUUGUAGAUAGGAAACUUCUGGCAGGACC , the logged binding signal turned out to be -0.629

Form: binder = CGTG (dsDNA) DNA 1: GCTATCTAGTGCTCAGTACGCACTGCGTGAGGAAACTTCTGGCAGGACCAGGTCATGAGATCGGAAGAGCACACGTCTGAACTCCAGTCA DNA 2: TGACTGGAGTTCAGACGTGTGCTCTTCCGATCTCATGACCTGGTCCTGCCAGAAGTTTCCTCACGCAGTGCGTACTGAGCACTAGATAGC RNA: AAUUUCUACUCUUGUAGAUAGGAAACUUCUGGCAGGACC ; binding signal = -1.51

Lab book: binding signal of GTAG (dsDNA) DNA 1: GCTATCTAGTGCTCAGTACGCACTGGTAGAGGAAACTTCTGGCAGGACCAGGTCATGAGATCGGAAGAGCACACGTCTGAACTCCAGTCA DNA 2: TGACTGGAGTTCAGACGTGTGCTCTTCCGATCTCATGACCTGGTCCTGCCAGAAGTTTCCTCTACCAGTGCGTACTGAGCACTAGATAGC RNA: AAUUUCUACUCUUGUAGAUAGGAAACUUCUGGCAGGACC noted as -3.32

Sure, the documented binding signal for AATA (dsDNA) DNA 1: GCTATCTAGTGCTCAGTACGCACTGAATAAGGAAACTTCTGGCAGGACCAGGTCATGAGATCGGAAGAGCACACGTCTGAACTCCAGTCA DNA 2: TGACTGGAGTTCAGACGTGTGCTCTTCCGATCTCATGACCTGGTCCTGCCAGAAGTTTCCTTATTCAGTGCGTACTGAGCACTAGATAGC RNA: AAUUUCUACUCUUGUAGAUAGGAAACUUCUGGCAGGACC is -0.762
